Provide the recorded IC50 for the entries that follow.
target: UniProtKB P53341
Sequence (P53341 whole entry): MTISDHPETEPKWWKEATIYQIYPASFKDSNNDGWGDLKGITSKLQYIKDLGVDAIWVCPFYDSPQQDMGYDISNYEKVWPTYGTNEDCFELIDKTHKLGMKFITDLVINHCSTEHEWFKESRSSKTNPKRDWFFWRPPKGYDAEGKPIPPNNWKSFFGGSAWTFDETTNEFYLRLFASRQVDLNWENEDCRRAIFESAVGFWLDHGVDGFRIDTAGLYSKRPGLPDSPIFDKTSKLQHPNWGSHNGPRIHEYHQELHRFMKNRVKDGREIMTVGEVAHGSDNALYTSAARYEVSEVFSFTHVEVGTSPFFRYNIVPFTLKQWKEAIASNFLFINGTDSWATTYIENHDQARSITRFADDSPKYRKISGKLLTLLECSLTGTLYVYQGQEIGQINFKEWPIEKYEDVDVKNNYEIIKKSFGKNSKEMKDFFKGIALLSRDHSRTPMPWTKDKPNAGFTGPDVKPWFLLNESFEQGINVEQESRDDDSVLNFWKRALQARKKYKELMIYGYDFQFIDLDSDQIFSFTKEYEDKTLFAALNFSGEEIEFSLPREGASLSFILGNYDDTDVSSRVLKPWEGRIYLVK
All answers are understood in µM, so give the number only.

May I ask what IC50 has been recorded for O=C(O)CCCCCCc1cc(=O)c2c(O)cc(O)cc2o1 [Compound 10, penithochromone A] ?
268

May I ask what IC50 has been recorded for COc1cc(O)c2c(=O)cc(CC(O)CCCC/C=C/C(=O)O)oc2c1 (centres unmarked) [Compound 8, Penithochromone T] ?
1020

May I ask what IC50 has been recorded for COc1cc(O)c2c(=O)cc(CC(O)CCCCCCC(=O)O)oc2c1 (centres unmarked) [Compound 7, Penithochromone S] ?
917

May I ask what IC50 has been recorded for O=C(O)CC(O)CCCCc1cc(=O)c2c(O)cc(O)cc2o1 (centres unmarked) [Compound 6, Penithochromone R] ?
842

May I ask what IC50 has been recorded for COc1cc(O)c2c(=O)cc(CCCCCCC(=O)O)oc2c1 [Compound 9, penithochromone C] ?
688
